System: Rhipicephalus (Boophilus) microplus
Test: In vitro injection test with Rhipicephalus (Boophilus) microplus (BOOPMI Inj)
Details: 168 h, dose 0.8 μg/animal injected, laid fertile eggs after 7 days, read-out: acaricidal activity
Endpoint name: pest or weed control at 0.0008 mg
Give the value; after it, write the unit.

O=C(Nc1c(I)cc(C(F)(C(F)(F)F)C(F)(F)F)cc1C(F)(F)F)c1cccc(NC(=O)c2ccc([N+](=O)[O-])cc2Cl)c1 :: 100%
CN(C(=O)c1ccc(F)c(F)c1)c1cccc(C(=O)Nc2c(I)cc(C(F)(C(F)(F)F)C(F)(F)C(F)(F)F)cc2C(F)(F)F)c1F (stereo not drawn) :: 100%
O=C(Nc1cccc(C(=O)Nc2c(Br)cc(C(F)(C(F)(F)F)C(F)(F)C(F)(F)F)cc2OC(F)(F)F)c1F)c1ccc(F)cc1 (stereo not drawn) :: 100%
O=C(Nc1cccc(C(=O)Nc2c(I)cc(C(F)(C(F)(F)F)C(F)(F)F)cc2S(=O)(=O)C(F)(F)F)c1F)c1ccc(F)cc1 :: 100%
CN(C(=O)c1ccc(C(F)(F)F)nc1C(F)(F)F)c1cccc(C(=O)Nc2c(I)cc(C(F)(C(F)(F)F)C(F)(F)F)cc2C(F)(F)F)c1F :: 100%

Respectfully, I request pest or weed control at 0.0008 mg for each entry included below.
1. Cc1ccc(C(=O)N(C)c2cccc(C(=O)Nc3c(I)cc(C(F)(C(F)(F)F)C(F)(F)F)cc3C(F)(F)F)c2F)cc1
2. N#Cc1ccc(C(=O)Nc2cccc(C(=O)Nc3c(Br)cc(C(F)(C(F)(F)F)C(F)(F)F)cc3OC(F)(F)F)c2)cc1
3. O=C(Nc1cccc(C(=O)Nc2c(I)cc(C(F)(C(F)(F)F)C(F)(F)C(F)(F)F)cc2C(F)(F)F)c1F)c1ccc(C(F)(F)F)nc1 (stereo not drawn)
4. CN(C(=O)c1ccc(C(N)=O)cc1)c1cccc(C(=O)Nc2c(I)cc(C(F)(C(F)(F)F)C(F)(F)F)cc2C(F)(F)F)c1F
5. CN(C(=O)c1ccc(F)cc1)c1cccc(C(=O)Nc2c(I)cc(C(F)(C(F)(F)F)C(F)(F)F)cc2OC(F)(F)F)c1F
6. CN(C(=O)c1ccc(C#N)cc1)c1cccc(C(=O)Nc2c(I)cc(C(F)(C(F)(F)F)C(F)(F)C(F)(F)F)cc2C(F)(F)F)c1F (stereo not drawn)
7. CN(C(=O)c1ccc(F)cc1)c1cccc(C(=O)Nc2c(Br)cc(C(F)(C(F)(F)F)C(F)(F)C(F)(F)F)cc2OC(F)F)c1F (stereo not drawn)

Result:
1: 100%; 2: 100%; 3: 100%; 4: 100%; 5: 100%; 6: 100%; 7: 100%

---

Test system: Amblyomma americanum
Experiment: In vitro contact test with hard ticks (Amblyomma americanum nymphs)
Conditions: dose 0.2 μg/cm^2, 48 h, read-out: acaricidal activity
Endpoint name: pest or weed control at 0.2 µg/cm2, 0.2 µg/cm2 (%)
Give bare numbers, in %.

Solved cases (5 shown):
O=C(Nc1cccc(C(=O)Nc2c(Br)cc(C(F)(C(F)(F)F)C(F)(F)C(F)(F)F)cc2C(F)(F)F)c1F)c1ccc(F)cc1 (stereo not drawn) :: 90
CN(C(=O)c1ccc(Cl)cc1)c1cccc(C(=O)Nc2c(I)cc(C(F)(C(F)(F)F)C(F)(F)F)cc2C(F)(F)F)c1F :: 90
O=C(Nc1cccc(C(=O)Nc2c(I)cc(C(F)(C(F)(F)F)C(F)(F)F)cc2OC(F)(F)F)c1F)c1ccc(F)c(F)c1 :: 90
O=C(Nc1cccc(C(=O)Nc2c(I)cc(C(F)(C(F)(F)F)C(F)(F)F)cc2C(F)(F)F)c1F)c1ccc(C(F)(F)F)nc1 :: 90
N#Cc1ccc(C(=O)Nc2cccc(C(=O)Nc3c(Br)cc(C(F)(C(F)(F)F)C(F)(F)F)cc3OC(F)(F)F)c2F)cc1 :: 90

Turning to the following compound.
Q: For the compound O=C(Nc1cccc(C(=O)Nc2c(I)cc(C(F)(C(F)(F)F)C(F)(F)C(F)(F)F)cc2C(F)(F)F)c1F)c1ccc(F)cc1 (stereo not drawn) , what pest or weed control at 0.2 µg/cm2, 0.2 µg/cm2 is on record?
Result: 90
